Taken from patent US20210388087A1.

Molecular target: T1, Human CD3eg linker (human)
T1 construct: single-chain construct; also called recombinant human CD3
T1 chain: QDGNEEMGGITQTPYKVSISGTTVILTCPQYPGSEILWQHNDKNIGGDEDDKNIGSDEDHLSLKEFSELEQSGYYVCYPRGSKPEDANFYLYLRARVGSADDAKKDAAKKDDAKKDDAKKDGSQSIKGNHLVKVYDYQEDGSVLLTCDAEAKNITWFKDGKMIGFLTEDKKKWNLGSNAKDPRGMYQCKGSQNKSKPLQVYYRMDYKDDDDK
Assay: SPR, vs unmutated H183/L072
PROPERTY NAME: fold change of affinity (fold)
Give the quantity in fold, number only.

Known results for binders:
dBBDu183H S62V/dBBDu072L (antibody, name in Kabat numbering, V domains shown) VH: QVQLVESGGGLVQPGRSLRLSCAASGFTFSNAWMHWVRQAPGKGLEWVAQIKDKGNAYAAYYAPVVKGRFTISRDDSKNSIYLQMNSLKTEDTAVYYCHYVHYASASTVLPAFGVDAWGQGTTVTVSS VL: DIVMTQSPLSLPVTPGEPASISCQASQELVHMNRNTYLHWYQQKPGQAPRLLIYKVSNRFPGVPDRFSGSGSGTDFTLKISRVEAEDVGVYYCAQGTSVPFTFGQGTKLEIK: 1.4
dBBDu183H G65H/dBBDu072L (antibody, name in Kabat numbering, V domains shown) VH: QVQLVESGGGLVQPGRSLRLSCAASGFTFSNAWMHWVRQAPGKGLEWVAQIKDKGNAYAAYYAPSVKHRFTISRDDSKNSIYLQMNSLKTEDTAVYYCHYVHYASASTVLPAFGVDAWGQGTTVTVSS VL: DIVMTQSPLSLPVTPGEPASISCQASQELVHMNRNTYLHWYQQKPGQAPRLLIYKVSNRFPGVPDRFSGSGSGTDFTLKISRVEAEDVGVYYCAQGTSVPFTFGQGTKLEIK: 0.9

Let us examine a further case.
q: Entry dBBDu183H P100eH/dBBDu072L (antibody, name in Kabat numbering, V domains shown) VH: QVQLVESGGGLVQPGRSLRLSCAASGFTFSNAWMHWVRQAPGKGLEWVAQIKDKGNAYAAYYAPSVKGRFTISRDDSKNSIYLQMNSLKTEDTAVYYCHYVHYASASTVLHAFGVDAWGQGTTVTVSS VL: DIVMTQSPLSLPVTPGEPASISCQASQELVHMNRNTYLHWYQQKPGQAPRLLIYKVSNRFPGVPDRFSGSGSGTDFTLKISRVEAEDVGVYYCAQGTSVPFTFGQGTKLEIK has what fold change of affinity?
a: 1.5
